# assayed.system: HLA-B*58:01 (Homo sapiens, UniProt P01889, A329T/C349S/D201E/D98Y/E176V/E187L/E204Q/E69T/G107R/I218V/I90N/K202T/L105A/L119I/N104I/N87E/Q89R/Q94S/R106L/R155S/R180L/R86G/S101N/S121R/S35A/S48A/T118I/V127L/V306I/V36M/Y140S/Y91M)
# Type: binding
# condition.notes: percent relative the binding of positive control peptide IAMESIVIW; duplicated experiments; positive binder >40%
Please map values of Bind B*58:01 to classes as shown: LOW: < 2%; MEDIUM: ≥ 2% and < 10%; HIGH: ≥ 10%

Please review the entries below; each comes with its answer.
> print(dat)
             query.sequence  category.label
1  ALQNLARTI [Rv3875_68–76]             LOW
2  QQKWDATAT [Rv3875_55–63]          MEDIUM

Then this sequence:
Q) Could you tell me which band AIQGNVTSI [Rv3875_17-25] belongs to?
A) HIGH
